Provenance of the data: patent US20250034594A1

# Tested on: gene editing with dCas9
# ASSAY_NAME: Screen of 322 new SSAP proteins, gene editing activity with dCas9 (Table 5)
# Type: cell-based
# CONDITION_NOTES: normalized
Rule: dCas9 with SSAP activity (normalized) under -0.6 gives no (0), otherwise yes (1).

SSAP_151: SEQ ID NO: 320; Mammaliicoccus (protein, listed as Mammaliicoccus sp.) ATNESIKNQVASRKKNEVQNKSPKTQLNDLLIKMGPEIQRALPKHMDADRMARIAMTAVSTTPKLLECDQMSFIGALMQASQLGVEPNTGLGQAYLIPYGGKVQFQLSYKGLIDLATRSGQYKAIYAHEVFPNDEFNYQYGLFKNLEHIPSQEPEGEPIGYYAVYHLKNGGYDFVYWTRERVDKHAKDFSQAVQKGWTSPWKTNYDAMAKKTVLKEVLKYAPKSIEMNKAVNSDSTIKDEINEDMSSVIDITDYEEVNDQQEEKKEESK ... yes (1)
SSAP_54: SEQ ID NO: 223; Bet Pseudomonas phage PS-1 (protein, listed as Pseudomonas sp.) SNVATIKPSSLSARMAERFGVDPNEMMATLKATAFKGQVSDAQMQALLIVADQYGLNPWTKEIYAFPDKGGIVPVVGVDGWSRIINENGAFDGMDFQQDDESCTCIIYRKDRNHPIKVTEWMAECKRNTQPWQSHPKRMLRHKAMIQCARLAFGYTGIFDEDEAQRIVEKDVTPAVNEPDITPALEAIKNASSMEELHAAFKAAWNQHPSARARLTAVKDERKKALSEPIEGELVENEDGPAQQ ... yes (1)
SSAP_91: SEQ ID NO: 260; Proteus mirabilis (protein, listed as Proteus mirabilis) SNPPLAQADLQKTQGTEVKTKTKDQQLIHFINQPSMKTQLAAALPRHMTPDRMIRIVTTEIRKTPALANCDMQSFIGAVVQCSQLGLEPGNALGHAYLLPFGNGKAKSGQSNVQLIIGYRGMIDLARRSNQIISISARTVRQGDSFHFEYGLNENLTHVPGENEDSPITHVYAVARLKDGGVQFEVMTHNQIEKVRASSKAGQNGPWVSHWEEMAKKTVIRRLFKYLPVSIEMQKAVILDEKAEANVDQENASVFEGEFEEVGSNGN ... yes (1)
SSAP_298: SEQ ID NO: 467; Nocardia aurea (protein, listed as Nocardia aurea) SESISAAADAQKVTPRIVLDRHRDAFAQVLPPTINLDRWLRLAESAINASAGLLDIFRRDRGASALKALMKCAQLGHEPGSGLFHLVPKGQAIEGWEDYKGILQRILRSALYAKVVVAPVYANDEYAFDVNVDERPRHKQAAGDRGEPVRAYAYAVHRDGSTSTIAEATPAMIAGAKAKGHKTDASTSPWQNPRAPMHQKVAVRELERFVSTSAVDLRVTGDVTDLIIEEP ... yes (1)
SSAP_125: SEQ ID NO: 294; Lysinibacillus fusiformis (protein, listed as Lysinibacillus fusiformis) ATTNELKAKSQNQVQQNVTPEQSLNTLLKRMGPQIQRALPKHMDADRIARIALTAVRATPKLLECDQMSFVAALMQSAQLGVEPNTGLGQAYLIPYGKQVQFQLGYKGLIDLAVRSGQYKAIYAHEVYKEDEFSFAYGLHKDLVHVPSTNPEGEPIGYYAVYHLKNGGYDFVYWTRERIDKHAHEFSQAVKKGWTSPWKTNYDAMAKKTVLKEVLKYAPKSIELQKVVEADETIKTEVSEDMSDVIDVTDYSVIEDESAQEELIIEQ ... no (0)
